Tested on: Type IV PDE
METHOD_NOTES: PDE IV inhibition: hydrolysis of [3H]-cyclic AMP by isolated Type IV PDE
Format: biochemical, bovine
MEASUREMENT_CONTEXT: adenines, Table 4; cyclic AMP 0.2 μM; read-out: calc PDE IV IC50
Counter-ions that a name gives are not always drawn.
Recorded pIC50, one value per entry.
Worth noting: pIC50 values are minus log10 of concentrations stated in mol/L.

{"MOLECULE": "CCCCn1cnc(NCC)c2ncnc1-2 [hydrochloride]", "pIC50": 4.18}
{"MOLECULE": "CCCCn1cnc(NCC)c2nc(C3CC3)nc1-2 [hydrochloride]", "pIC50": 5.22}
{"MOLECULE": "CCCn1cnc(NC2CC2)c2nc(C3CC3)nc1-2 [hydrochloride]", "pIC50": 5.10}
{"MOLECULE": "CCNc1ncn(CC2CC2)c2nc(C(C)C)nc1-2 [hydrochloride]", "pIC50": 4.90}
{"MOLECULE": "CCn1cnc(NCc2ccccc2)c2nc(C3CCCC3)nc1-2 [hydrochloride]", "pIC50": 4.20}
{"MOLECULE": "CCNc1ncn(CC2CCCCC2)c2ncnc1-2 [hydrochloride]", "pIC50": 4.48}

Continue with the next molecule.
# pIC50 (molecule: CCNc1ncn(CC)c2nc(Cc3ccc(OC)c(OC4CCCC4)c3)nc1-2 [Hydrochloride] ) is 5.34

----------
Recorded pIC50, one value per entry.
Test system: Type IV PDE
METHOD_NOTES: PDE IV inhibition: hydrolysis of [3H]-cyclic AMP by isolated Type IV PDE
Format: biochemical, bovine
MEASUREMENT_CONTEXT: adenines, Table 7; read-out: calc PDE IV IC50
Worth noting: pIC50 values are minus log10 of concentrations stated in mol/L.

Example cases with answers are listed next.
{"COMPOUND": "CCNc1ncn(Cc2ccc(OC)cc2)c2nc(C(C)C)nc1-2", "pIC50": 5.92}
{"COMPOUND": "CCNc1ncn(Cc2ccc(OC)c(OCc3ccncc3)c2)c2nc(C(C)C)nc1-2", "pIC50": 4.61}
{"COMPOUND": "CC(C)(OCc1ccc(F)cc1)c1nc2c(N)ncn(Cc3ccc4c(c3)OCO4)c-2n1", "pIC50": 6.14}
{"COMPOUND": "COc1ccc(Cn2cnc(N)c3nc(C(C)(C)OCc4ccc(F)cc4)nc2-3)cc1OC1CCCC1.Cl [hydrochloride]", "pIC50": 7.47}

Continue with the next compound.
Bench note, Type IV PDE: CCNc1ncn(Cc2cc[n+]([O-])cc2)c2nc(C(C)C)nc1-2 , pIC50 reads 3.41

----------
Test system: Type IV PDE
METHOD_NOTES: PDE IV inhibition: hydrolysis of [3H]-cyclic AMP by isolated Type IV PDE
Assay type: biochemical, bovine
MEASUREMENT_CONTEXT: adenines, Table 7; read-out: calc PDE IV IC50
QUANTITY_NAME: IC50 (nM)
Reply numerically in nM, unit not repeated.

Example cases with answers are listed next.
{"COMPOUND": "COc1ccc(Cn2cnc(N)c3nc(C(C)C)nc2-3)cc1OC1CCCC1", "QUANTITY_NAME": "IC50", "VALUE_UNITS": "nM", "OBSERVED_RESULT": 820}
{"COMPOUND": "CCNc1ncn(Cc2ccc(OC)c(OC3CCC(O)C3)c2)c2nc(C(C)C)nc1-2 (stereo not drawn) [3-[3-(3-hydroxy)cyclopentyloxy)]-4-methoxy)benzyl)-6-ethylam]", "QUANTITY_NAME": "IC50", "VALUE_UNITS": "nM", "OBSERVED_RESULT": 2280}
{"COMPOUND": "CCNc1ncn(Cc2ccc(OC)c(OC3CCCC3)c2)c2nc(C(C)(C)O)nc1-2 [3-[(3-cyclopentyloxy-4-methoxy)benzyl]-6-ethylamino-8-[(1-hy]", "QUANTITY_NAME": "IC50", "VALUE_UNITS": "nM", "OBSERVED_RESULT": 850}
{"COMPOUND": "CCNc1ncn(Cc2ccc(OC)c(OCc3ccccc3)c2)c2nc(C(C)C)nc1-2", "QUANTITY_NAME": "IC50", "VALUE_UNITS": "nM", "OBSERVED_RESULT": 1300}
{"COMPOUND": "CCNc1ncn(Cc2ccc(OC)c(OCCN(C)C)c2)c2nc(C(C)C)nc1-2", "QUANTITY_NAME": "IC50", "VALUE_UNITS": "nM", "OBSERVED_RESULT": 8950}
{"COMPOUND": "CCNc1ncn(Cc2ccc(F)cc2)c2nc(C(C)C)nc1-2", "QUANTITY_NAME": "IC50", "VALUE_UNITS": "nM", "OBSERVED_RESULT": 1850}

# IC50 (compound: CCNc1ncn(CCc2ccc(Cl)cc2)c2nc(C(C)C)nc1-2 ) is 4460
